species: Cavia porcellus; experiment: Tested for the force increase in guinea pig atria at 100 uM; type: functional; settings: read-out: Inhibition
Test Readout: Atrial force increase (% of isoprenaline maximum) at 100 µM (%)
Express the result in % but write the number alone.

>>> print(df.to_string())
                            compound_smiles  test_result
0    COC(=O)c1c(C)[nH]c(C)c1C(=O)c1ccccc1OC           44
1  COC(=O)c1ccccc1C(=O)c1c(C)[nH]c(C)c1C(=O)OC           16

Please report the recorded Atrial force increase (% of isoprenaline maximum) at 100 µM for `COC(=O)c1c(C)[nH]c(C)c1C(=O)c1ccccc1[N+](=O)[O-]` .
17

Reported Atrial force increase (% of isoprenaline maximum) at 100 µM for `COC(=O)c1c(C)[nH]c(C)c1C(=O)c1c(Cl)cccc1Cl` : what is it?
0
